test: chemical genetic growth profiling, strain panel (AID 1159580);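 note: tested at 20 µM; growth read once vehicle control cultures reached saturation at 30 °C; 1 = growth at the plate median or of vehicle wells; lower values mean less growth of the strain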; conditions: S. cerevisiae deletion strains, growth OD, locus YDR363W, strain ESC2, active compounds read low
Hit rate of the full screen: of about 5,500 compounds, about 2,000 (36%) were called active. About 18% were inconclusive and are not listed. Some of the results follow.
In this section, each of the compounds is paired with its reported normalized growth.

Record excerpt, results attached:
compound	reported_measurement
CNCCCN1c2ccccc2CCc2ccccc21	0.997 (inactive)
CN(C)CC[C@@H](c1ccc(Br)cc1)c1ccccn1	0.97 (inactive)

I would be grateful if you could share the reported normalized growth for S=C(Nc1ccccc1)Nc1nccs1 .
0.977 (inactive)

Let us now turn to COc1c2c(nc3ccccc13)OC(C(C)(O)CO)C2 (centres undefined)
0.993 (inactive)

Let us now turn to CS(=N)(=O)CC[C@H](N)C(=O)O (some centres undefined)
0.962 (inactive)
